Test system: Lung cancer cell line
Assay: In vitro cytotoxicity against lung cancer cell line
Type: functional, cell-based
Conditions: Homo sapiens
observation-type: EC50 (µg/mL)
Provide only the numeric value, understood in µg/mL.

[Q] Recorded EC50 of COC1=C(OC)[C@@]2(OC)c3c(OC)c(O)c4c(c3O[C@@]23O[C@@H](c2ccccc2)CC=C3C1=O)[C@@H](OC)C[C@H](c1ccccc1)O4 , please.
[A] 0.7

[Q] Entry COC1=C(OC)[C@@]2(OC)c3c(O)c(OC)c4c(c3O[C@@]23O[C@@H](c2ccccc2)CC=C3C1=O)[C@@H](OC)C[C@H](c1ccccc1)O4 has what EC50?
[A] 1.2

[Q] Look at this compound and give its reported EC50. COC1=C(OC)[C@@]2(OC)c3c(O)c(OC)c4c(c3O[C@@]23O[C@@H](c2ccccc2)CC=C3C1=O)[C@@H](O)C[C@H](c1ccccc1)O4
[A] 1.6
